Some compounds, each annotated with its measured cytotoxicity at 48 h, 30 µM.
Assay: Cytotoxicity against BALB/c mouse splenocytes at 30 uM after 48 hrs by MTT assay
Format: cell-based, Splenocyte
Conditions: read-out: INH
Give the value in % but do not write % after it.

The examples below pair each entry with its known result.
mol=COc1cc(OC)c2c(O[C@@H]3O[C@H](CO)[C@H](O)[C@H](O)[C@H]3O)ccnc2c1 reported_metric="cytotoxicity at 48 h, 30 µM" test_result=4.2
mol=COc1cc(OC)c2c(OC(=O)c3ccccc3F)ccnc2c1 reported_metric="cytotoxicity at 48 h, 30 µM" test_result=12.8
mol=COc1cc(OC)c2c(O[C@@H]3O[C@H](CO)[C@@H](O)[C@H](O)[C@H]3O)ccnc2c1 reported_metric="cytotoxicity at 48 h, 30 µM" test_result=9.1
mol=COc1cc(OC)c2c(OC(=O)c3ccccc3Cl)ccnc2c1 reported_metric="cytotoxicity at 48 h, 30 µM" test_result=6.6

// lookup cytotoxicity at 48 h, 30 µM for Cc1cc(=O)c2c(O)cc(O)cc2[nH]1
9.9

# iterate: COc1cc(OC)c2c(OC(C)=O)ccnc2c1
11.2

Follow-up entry: CCCCCCCC/C=C\CCCCCCCC(=O)Oc1ccnc2cc(OC)cc(OC)c12
8.8

Same question for O=c1cc[nH]c2cc(O)cc(O)c12 please.
10.9

---

Assay: Cytotoxicity against BALB/c mouse splenocytes at 10 uM after 48 hrs by MTT assay
Format: cell-based, Splenocyte
Conditions: read-out: INH
reported.metric: cytotoxicity at 48 h, 10 µM
Give the value; after it, write the unit.

mol=COc1cc(OC)c2c(OS(=O)(=O)c3ccc(C)cc3)ccnc2c1 test_result=6.2%
mol=COc1cc(OC)c2c(OC(=O)c3ccccc3)cc(C)nc2c1 test_result=-7.6%
mol=CCCCCCCCC(=O)Oc1ccnc2cc(OC)cc(OC)c12 test_result=6.4%
mol=COc1cc(OC)c2c(OC(=O)c3cc(Br)cc(Br)c3)ccnc2c1 test_result=5.5%

Using the record for CCCCCCCC/C=C\CCCCCCCC(=O)Oc1ccnc2cc(OC)cc(OC)c12 , report its cytotoxicity at 48 h, 10 µM.
4.1%

Follow-up entry: COc1cc(OC)c2c(OC(=O)c3ccccc3F)ccnc2c1
7.7%

Same for COc1cc(OC)c2c(OC(=O)c3ccccc3[N+](=O)[O-])ccnc2c1
10.7%

Another: COc1cc(OC)c2c(OC(=O)c3cc(Cl)cc(Cl)c3)ccnc2c1
3.4%

Would you mind doing COc1cc(OC)c2c(O[C@@H]3O[C@H](CO)[C@@H](O)[C@H](O)[C@H]3O)ccnc2c1 as well?
7.6%

Moving on to the next molecule: COC(=O)c1ccc(C(=O)Oc2ccnc3cc(OC)cc(OC)c23)cc1
6.6%

What would you report for O=c1cc[nH]c2cc(O)cc(O)c12 ?
1.8%

Same read-out for COc1cc(OC)c2c(OC(=O)c3ccc(Cl)cc3)ccnc2c1 ?
3.4%

Follow-up item: COc1cc(OC)c2c(OC(=O)c3ccc([N+](=O)[O-])cc3)ccnc2c1
6%

Could you do the same for COc1cc(OC)c2c(OC(=O)c3cccc(Br)c3)ccnc2c1 , please?
1.7%

# iterate: COc1cc(OC)c2c(O[C@@H]3O[C@H](CO)[C@H](O)[C@H](O)[C@H]3O)ccnc2c1
6.2%

Now give it for COc1ccc(C(=O)Oc2ccnc3cc(OC)cc(OC)c23)cc1 too.
8.2%

---

Test: Immunosuppressive activity in BALB/c mouse splenocytes assessed as inhibition of concanavalin A-induced cell proliferation at 100 uM after 48 hrs by MTT assay
Type: functional
Conditions: Splenocyte
reported.metric: inhibition at 100 µM
Please answer using the number first and the unit second.

mol=COc1cc(OC)c2c(OS(=O)(=O)c3ccc(C)cc3)ccnc2c1 reported_metric="inhibition at 100 µM" test_result=94.2%
mol=COc1cc(OC)c2c(OC(=O)c3cc([N+](=O)[O-])cc([N+](=O)[O-])c3)ccnc2c1 reported_metric="inhibition at 100 µM" test_result=5.6%
mol=O=c1cc[nH]c2cc(O)cc(O)c12 reported_metric="inhibition at 100 µM" test_result=18%
mol=COc1cc(OC)c2c(OC(=O)c3ccccc3)cc(C)nc2c1 reported_metric="inhibition at 100 µM" test_result=81.5%
mol=COc1cc(OC)c2c(O[C@@H]3O[C@H](CO)[C@@H](O)[C@H](O)[C@H]3O)ccnc2c1 reported_metric="inhibition at 100 µM" test_result=20.4%

I have this molecule here, COc1cc(OC)c2c(OC(=O)c3cccc(Cl)c3)ccnc2c1 , and I need its recorded inhibition at 100 µM.
90.8%

Next record, please: COc1cc(OC)c2c(OC(=O)c3ccc(I)cc3)ccnc2c1
91.3%

Queued: COc1cc(OC)c2c(OC(=O)c3ccc(Cl)cc3)ccnc2c1
86.3%

Also need COc1cc(OC)c2c(OC(=O)c3ccccc3)ccnc2c1 , thanks.
35.4%

Same question for COc1cc(OC)c2c(OC(=O)c3ccccc3C)ccnc2c1 please.
92.2%

Please answer likewise for COc1cc(OC)c2c(OC(=O)c3ccccc3Cl)ccnc2c1
89.8%

Repeat with COc1ccc(C(=O)Oc2ccnc3cc(OC)cc(OC)c23)cc1
17.7%

Another molecule to check: COc1cc(OC)c2c(OC(=O)c3c(Cl)cccc3Cl)ccnc2c1
94.3%

---

Measured cytotoxicity at 48 h, 10 µM, listed per entry.
Assay: Cytotoxicity against BALB/c mouse splenocytes at 10 uM after 48 hrs by MTT assay
Type: cell-based, Splenocyte
Details: read-out: INH
# output: bare number, implied unit %

Fill in the blank: the reported cytotoxicity at 48 h, 10 µM of Cc1cc(=O)c2c(O)cc(O)cc2[nH]1 is ____.
9.1

Follow-up item: COc1cc(OC)c2c(OC(=O)c3ccccc3I)cc(C)nc2c1
-3.4

And what about the molecule COc1cc(OC)c2c(OC(=O)c3cc([N+](=O)[O-])cc([N+](=O)[O-])c3)ccnc2c1 ?
3.4

Would you kindly repeat that for COc1cc(OC)c2c(OC(=O)c3ccccc3Br)ccnc2c1 ?
9.8

Same for COc1cc(OC)c2c(=O)cc(C)[nH]c2c1
6.5

Entry to check: COc1cc(OC)c2c(OC(=O)c3cccc(I)c3)ccnc2c1
3

Now consider COc1cc(OC)c2c(OC(=O)c3cccc([N+](=O)[O-])c3)ccnc2c1 .
3.3

Try the molecule COc1cc(OC)c2c(OC(=O)c3ccc(I)cc3)ccnc2c1
6

---

Experiment: Immunosuppressive activity in BALB/c mouse splenocytes assessed as inhibition of concanavalin A-induced cell proliferation at 100 uM after 48 hrs by MTT assay
Format: functional
Conditions: Splenocyte
Give Criterion met when the value for inhibition at 100 µM is at least 60%. Give Criterion not met when it is less.

mol=COc1cc(OC)c2c(OC(=O)c3cccc([N+](=O)[O-])c3)ccnc2c1 qualitative_label="Criterion met"
mol=COc1cc(OC)c2c(O[C@@H]3O[C@H](CO)[C@H](O)[C@H](O)[C@H]3O)ccnc2c1 qualitative_label="Criterion not met"
mol=COc1cc(OC)c2c(OC(=O)c3cc(Br)cc(Br)c3)ccnc2c1 qualitative_label="Criterion not met"
mol=CCCCCCCC/C=C\CCCCCCCC(=O)Oc1ccnc2cc(OC)cc(OC)c12 qualitative_label="Criterion not met"
mol=COc1cc(OC)c2c(OC(=O)c3cc(Cl)cc(Cl)c3)ccnc2c1 qualitative_label="Criterion not met"

Threshold query (inhibition at 100 µM >= 60%) on COc1cc(OC)c2c(OC(=O)c3ccc(Br)cc3)ccnc2c1
Criterion not met

What do you have for CCCCCCCCC(=O)Oc1ccnc2cc(OC)cc(OC)c12 ?
Criterion not met

Moving on to the next compound: COc1cc(OC)c2c(OC(=O)c3ccccc3I)cc(C)nc2c1
Criterion met

// repeat for COc1cc(OC)c2c(OC(=O)c3cccc(Br)c3)ccnc2c1 and report
Criterion met

---

Listed molecules paired with reported cytotoxicity at 48 h, 30 µM
Test: Cytotoxicity against BALB/c mouse splenocytes at 30 uM after 48 hrs by MTT assay
Type: cell-based, Splenocyte
Conditions: read-out: INH
Supply the numeric figure in %, leaving out any unit text.

mol=COc1cc(OC)c2c(OC(=O)c3ccccc3)cc(C)nc2c1 reported_metric="cytotoxicity at 48 h, 30 µM" unit_annotation=% test_result=-0.2
mol=COc1cc(OC)c2c(OC(=O)c3ccc(Br)cc3)ccnc2c1 reported_metric="cytotoxicity at 48 h, 30 µM" unit_annotation=% test_result=7.3
mol=COc1cc(OC)c2c(=O)cc(C)[nH]c2c1 reported_metric="cytotoxicity at 48 h, 30 µM" unit_annotation=% test_result=14.7
mol=COc1cc(OC)c2c(OC(=O)c3cccc([N+](=O)[O-])c3)ccnc2c1 reported_metric="cytotoxicity at 48 h, 30 µM" unit_annotation=% test_result=8.1
mol=CCCCC(=O)Oc1ccnc2cc(OC)cc(OC)c12 reported_metric="cytotoxicity at 48 h, 30 µM" unit_annotation=% test_result=10.5

Record request: cytotoxicity at 48 h, 30 µM value, item COc1cc(OC)c2c(=O)cc[nH]c2c1
7.8

Where do these numbers come from? They come from ChEMBL document CHEMBL1154117.
